- Test system: OVCAR-5 ovarian
- TEST_NAME: NCI tumour cell line growth inhibition, 48 h; in the data active means GI50 below about 0.43 µM; inactive means the rest
Labels: active, inactive

MOLECULE	CLASS_NAME
Cc1cncc2cccc(S(=O)(=O)N3CCCNC[C@@H]3C)c12	inactive
CCN(CC)Cc1cc(Nc2c3ccc(Cl)cc3nc3c(C)cccc23)ccc1O	inactive
c1ccc2c(Nc3ccc4c(c3)OCO4)c3ccoc3nc2c1	inactive
CCOC(=O)Nc1ccc2nc(Sc3ccc(Cl)cc3)sc2c1	inactive
Cc1cccc(Cc2cnc(NC(=O)/C=C/c3ccco3)s2)c1	active
COc1ccc(CN[C@H]2CCc3cc(OC)c(OC)c(OC)c3-c3ccc(SC)c(=O)cc32)c(OC)c1OC	inactive
Cc1c(-c2ccnc(N)n2)c2c(n1-c1ccccc1)C(=O)c1ccccc1C2=O	inactive
CCOC(=O)CCC(NC(=O)c1ccc(Nc2nc3cc(N)cc(N)c3nc2-c2ccccc2)cc1)C(=O)OCC (stereo unspecified)	inactive
CCN(Cc1cccc(C)c1)c1ccc(CO)c(Cl)c1	active
CC[C@@]1(O)C(=O)N(CCN(C)C)Cc2c1cc1n(c2=O)Cc2cc3ccccc3nc2-1	inactive
CCC[CH2][Sn]1([CH2]CCC)[O]N=Cc2ccccc2[O]1	inactive
